# Test system: HL-60(TB) leukemia
# Assay Procedure: NCI tumour cell line growth inhibition, 48 h
Assay Readout: TGI

CCn1cc(C(=O)O)c(=O)c2cc(F)c(N3CCN(Cn4c(O)c(N=NC(=O)c5ccncc5)c5cc(Cl)ccc54)CC3)cc21
37 µM
CN(C)Cc1cc(C(=O)/C=C/c2c(Cl)cccc2Cl)cc(CN(C)C)c1O
11.7 µM
Cc1nc(Nc2ccccc2)sc1C(=O)NNC(N)=O
> 100 µM
O=C1OC(c2ccccc2)=N/C1=C/c1cccs1
44.5 µM
COc1ccc(OC)c2c(=O)cc(-c3ccccc3)[nH]c12
> 100 µM

What value of measured TGI is listed for "CCC[C@H](Nc1nc(-c2ccc(NC(=O)NCC)c(OC)c2)ncc1C)c1cccnc1" ?
0.0582 µM

What value of measured TGI is listed for "CCCOc1ccc(/C=C/C2=[N+](CCO)CCO2)cc1" ?
> 100 µM

What value of measured TGI is listed for "CCOC(=O)CCc1c(C)c2ccc(O)cc2oc1=O" ?
> 100 µM

What value of measured TGI is listed for CC1CC(C)C(=O)C(C(=O)CC2CC(=O)NC2=O)C1 (stereo unspecified) ?
> 100 µM

What value of measured TGI is listed for "C/C=C/CP(=O)(c1ccccc1)c1ccccc1" ?
> 100 µM

What value of measured TGI is listed for COC(=O)C(Cc1ccccc1)C(=O)NC(CNC(=O)OCc1ccccc1)C(=O)OCc1ccccc1 (stereo unspecified) ?
> 67.9 µM

---

# System: UACC-257 melanoma
# Assay Procedure: NCI tumour cell line growth inhibition, 48 h
Assay Readout: log10 of TGI (log10 of the value in µM)
Would you kindly interpret these values as log10 of TGI expressed in µM?

CN1CCN(CCCOc2ccc3ncnc(Nc4ccc(Oc5cccc(C(F)(F)F)c5)c(Cl)c4)c3c2)CC1
0.57
O=C1CC(N2C(=O)/C(=C/C(Cl)=C\c3ccc([N+](=O)[O-])cc3)SC2=S)C(=O)N1c1ccc(Cl)cc1 (stereo not given)
1.82
COC(=O)C(Cc1ccccc1)C(=O)NC(CNC(=O)OCc1ccccc1)C(=O)OCc1ccccc1 (stereo not given)
1.54
Cc1cccc(Oc2ccc(Nc3ncnc4ccc(NC(=O)CN5CCN(C)CC5)cc34)cc2Cl)c1
0.59
Cc1ccc(-c2nc3nc(-c4ccc(Cl)cc4)nc(N4CCCNCC4)c3o2)cc1
0.56
C=C1C(=O)O[C@H]2[C@H]1CC/C(Cn1cc(Cn3ccc4cc(Cl)ccc43)nn1)=C\CC[C@@]1(C)O[C@@H]21
0.56
CN1CCC23c4ccccc4NC1C21CCN(C)C3Nc2ccccc21
2.36
O=S(=O)(NCCNc1cc(-c2cn(-c3ccccc3)nc2-c2cccc(O)c2)ccn1)c1ccc(F)cc1
0.85
Cc1nc2c(n1CCCl)C(=O)c1ccccc1C2=O
1.46

Consider the additional molecule presented here.
What value of measured log10 of TGI is listed for "COc1cc(N)ccc1Nc1c2ccccc2nc2ccccc12" ?
1.64

---

# System: SF-539 CNS
# Assay Procedure: NCI tumour cell line growth inhibition, 48 h; in the data active means GI50 below about 0.43 µM; inactive means the rest
Pick from active, inactive when you respond.

Check out these entries, answers already filled in.
COc1cc(-c2ccc(-[n+]3nc(-c4ccc([N+](=O)[O-])cc4)nn3-c3ccc([N+](=O)[O-])cc3)c(OC)c2)ccc1-[n+]1nc(-c2ccc([N+](=O)[O-])cc2)nn1-c1ccc([N+](=O)[O-])cc1
inactive
CC(=O)[CH-]C(C)=O.CC(=O)[CH-]C(C)=O.CC(=O)[CH-]C(C)=O.[Cl-].[Hf+4]
inactive
CCC[CH2][Sn]([CH2]CCC)([O]C(=O)c1cccc(F)c1F)[O][Sn]([CH2]CCC)([CH2]CCC)[O]C(=O)c1cccc(F)c1F
active

Any idea what this test logged for "Cc1c(N(C(=O)c2cc(-c3cc(Cl)ccc3C(=O)N3Cc4ccccc4C[C@H]3CN3CCOCC3)n(C)c2C)c2ccc(O)cc2)cc(C#N)n1C" ?
inactive
